- Test system: T1, Human Siglec 5, Fc chimera (R&D Systems) (human, UniProt O15389 17-434, limits assumed)
- T1 construct: Bought or recombinant Fc fusion; also called recombinant Siglec-5-Fc; not shown: Fc part
- T1 sequence: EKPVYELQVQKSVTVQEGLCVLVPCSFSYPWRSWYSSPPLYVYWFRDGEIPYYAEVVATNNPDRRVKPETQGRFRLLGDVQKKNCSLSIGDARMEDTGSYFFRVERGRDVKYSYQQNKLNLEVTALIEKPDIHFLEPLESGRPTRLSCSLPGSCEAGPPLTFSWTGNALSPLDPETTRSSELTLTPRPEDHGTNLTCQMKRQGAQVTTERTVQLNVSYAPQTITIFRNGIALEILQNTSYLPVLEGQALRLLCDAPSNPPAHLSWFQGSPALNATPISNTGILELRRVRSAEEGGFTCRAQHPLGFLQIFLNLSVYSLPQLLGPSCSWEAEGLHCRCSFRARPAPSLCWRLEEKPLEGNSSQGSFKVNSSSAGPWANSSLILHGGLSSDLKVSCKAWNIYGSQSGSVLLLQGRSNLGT
- Experiment summary: RBC adhesion to plate-bound Siglec-5-Fc, 0.3 ug/ml mAb, percent of binding without antibody
Quick rule: Percent RBC Binding to Siglec-5 of at least 40% means Condition met, below that means Condition not met.

anti-Siglec-5 monoclonal antibody 9A5 (antibody, IgG1, V domains shown) VH: QVQLQQSGPELVEPGASVKVSCKASGYAFTSYNMYWVKQSHGKSLEWIGYIDPYNGGTYYDQKFKGRATLTVDKSSSTAHMHLNSLTSEDSAVYYCVFFYEYDGFPYWGQGTLVTVSA VL: DIVLTQSPTLMSASPGEKVTMTCSASSSVSYMYWYQQKPRSSPKPLIYLTSNLASGVPARFSGSGSGTSYSLTISSMEAEDAATYYCQQWSSNPLTFGAGTKLELK :: Condition met
anti-Siglec-5 monoclonal antibody 5H2 (antibody, IgG1, V domains shown) VH: EVQLQQSGPELVKPGASVKVSCKASGYSFTDYNMYWVKQSHGKSLEWIGYIDPYNGGTSYNQKFKGKATLTVDKSSSTAFMLLNSLTSEDSAVYYCALYYDYDGIPYWGQGTLVTVSA VL: DIVMTQSQKFMSTSVGDRVSVTCKASQNVGTNVAWYRQKPGQSPKALIYSASYRYNGVPDRFTGSGSGTDFTLTISNVQSEDLAEYFCQQYNSYPYTFGGGTKLEIK :: Condition not met
anti-Siglec-5 monoclonal antibody 8C3 (antibody, IgG1, V domains shown) VH: QVQLQQSGGGLVKPGTSVKLSCKASGYIFTEYIIHWVKQRSGQGLEWIGWFYPGIISIKYNEKFKDKATLTADKSSSTVYMELSRLTSEDSAVYFCAGHEGYDGAMDYWGQGTSVTVSS VL: DVLMTQTPLSLPVSLGDQASISCRCSQSIVHSNGNTYLEWYLQKPGQSPKLLIYRVSNRFSGVPDRFSGSGSGTDFTLKISRVEAEDLGVYYCFQGSHVPWTFGGGTKLEIK :: Condition not met
anti-Siglec-5 monoclonal antibody 8A1 (antibody, IgG1, V domains shown) VH: EIQLQQSGPELVKPGASVKVSCKASDYAFTSYNIYWVKQSHGKSLEWIGYIDPYNGGTSYNQTFKGKATLTVDKSSSTAYMHLNSLTSEDSAVYYCAMKVGYEAMDYWGQGTSVTVSS VL: DIVMTQSQKFMSTSVGDRVSVTCKASQNVGTYVAWYQQKPGQSPKALIYSASYRYSGVPDRFTGSGSGTDFTLNISNVQSEDLAEYFCQQFNSYPYTFGGGTKLEIK :: Condition not met
anti-Siglec-5 monoclonal antibody 11H3 (antibody, IgG1, V domains shown) VH: QVQLQQSGPELVKPGASVKVSCKASDYAFTSYNIYWVKQSHGKSLEWIGYIDPYNGGTSYNQTFKGKATLTVDKSSSTAYMHLNSLTSEDSAVYYCAMKVGYEAMDYWGQGTSVTVSS VL: DIQMTQSQKFMSTSVGDRVSVTCKASQNVGTNVAWYQQKPGQSPKALIYSASYRYSGVPDRFTGSGSGTDFTLNISNVQSEDLAEYFCQQFNSYPYTFGGGTKLEIK :: Condition not met
anti-Siglec-5 monoclonal antibody 7A5 (antibody, IgG1, V domains shown) VH: EIQLQQSGPELVKPGASVKVSCKASGYSFTDYNMYWVKQSHGKSLEWIGYIDPYNGGTTYNQKFKGKATLTVDKSSSTAFMHLNSLTSEDSAVFYCAFYYGYYGVPYWGQGTLVTVSA VL: DIVMIQSQKFMSTSVGDRVSVTCKASQNVDTNVAWYQQKPGQSPKALIYSASYRYSGVPDRFTGSGSGTDFTLTISNVQSEDLAEYFCQQYNSFPLTFGSGTKLEIK :: Condition met
